Every entry's value here was drawn from PubChem BioAssay (NCI).

Test system: 786-0 renal
ASSAY_PROCEDURE: NCI-60 one-dose screen, 48 h (100 = growth as untreated, 0 = no growth, -100 = all killed)
EXPERIMENTAL_CONTEXT: 10 µM unless noted
Procedure: Cells are grown in 96 well plates and exposed to the test compound for 48 hours. Compounds are tested at a single concentration, which is 10^-5 M for most compounds. The reported endpoint is percent growth (GI% or GIPRCNT), where numbers from 0 - 100% represent growth inhibition, and numbers from -100% - 0 represent cell death. For example, a value of 40 represents 60% growth inhibition. A value of 0 means no net growth occurred over the course of the experiment. […]
This is part of a sample that, as a whole, favours compounds with a hit. Of some 83,000 tested, about 20% had one in any assay. The source made the active and inactive calls. Rule for the calls: active = growth percent below 10; inactive = the rest.
MEASURED_METRIC: growth

# MOLECULE, MEASURED_METRIC, RECORDED_RESULT
data = [
    ("Cc1cc(Cc2cc(C)cc(C(C)(C)C)c2O)c(O)c(C(C)(C)C)c1", "growth", "57% (inactive)"),
    ("N=C(N)c1ccc(-c2ccc(-c3ccc(Cl)cc3Cl)o2)cc1", "growth", "-86% (active)"),
    ("Cl.Fc1c[c-]c(-c2ccccn2)c(F)c1.[Pt].c1ccc([PH+](c2ccccc2)c2ccccc2[PH+](c2ccccc2)c2ccccc2)cc1", "growth", "-73.9% (active)"),
    ("CC[C@@H](C[C@H](CCO)c1ccccc1)c1cc2ccccc2o1", "growth", "91% (inactive)"),
    ("CC(=O)NCC(=O)Nc1ccc(-c2nnc3ccccn23)nc1.CC(=O)NCC(=O)Nc1ccc(-c2nnc3ccccn23)nc1.[Pt+2]", "growth", "107% (inactive)"),
    ("N#Cc1c(N)n2c(nc1=Nc1ccc(Cl)cc1)sc1cc(Cl)ccc12", "growth", "51.4% (inactive)"),
    ("CSc1nc(N)c(CNC(C)c2ccccc2)c(=O)n1C (centres undefined)", "growth", "90.2% (inactive)"),
    ("CN(C)CN1CCN(c2ccc3nc(-c4ccc5nc(-c6ccc(C(F)(F)F)cc6)[nH]c5c4)[nH]c3c2)CC1", "growth", "78.5% (inactive)"),
    ("OC(c1cccc(OCc2ccccc2)c1)c1nnc(-c2ccccc2)o1 (centres undefined)", "growth", "100% (inactive)"),
    ("CCO/C=N/C1=C(C#N)C(c2ccc(OC)cc2)c2c(c3ccccc3n(C)c2=O)O1 (centres undefined)", "growth", "105% (inactive)"),
    ("Cc1cc(NS(=O)(=O)c2ccccc2)c(OS(=O)(=O)c2ccccc2)cc1C", "growth", "112% (inactive)"),
    ("C[C@@H]1CC[C@@H]2[C@@H]1[C@H](OC(=O)c1ccc3ccccc3c1)[C@]1(C3CCCCC3)C[C@@H](OC(=O)CO)[C@@]2(C)O1", "growth", "-7.27% (active)"),
    ("COc1cc(-c2cc(-c3ccc(Nc4nc(Nc5ccccc5)nc(Nc5ccc(Cl)cc5)n4)cc3)nc(N)n2)cc(OC)c1OC", "growth", "44% (inactive)"),
    ("CC1=CC(=O)C(C(C)C)=CC1=Nc1cc(Br)c(O)c(Br)c1", "growth", "9.71% (active)"),
    ("CCCCCCNC(=O)c1cc(NCc2cc(O)ccc2O)ccc1O", "growth", "45.9% (inactive)"),
    ("COC1(CC[C@@H](C)COC2OC(CO)C(O)C(O)C2O)O[C@H]2C[C@H]3[C@@H]4CC=C5C[C@@H](OC6OC(CO)C(OC7OC(C)C(O)C(O)C7O)C(O)C6OC6OC(C)C(O)C(O)C6O)CC[C@]5(C)[C@H]4CC[C@]3(C)[C@H]2[C@@H]1C (some centres undefined)", "growth", "-94.3% (active)"),
    ("Cc1nc(Nc2ccc(S(=O)(=O)Nc3cc(C)on3)cc2)c2ccccc2n1", "growth", "98.3% (inactive)"),
    ("C#CC[C@H](N)C(=O)O", "growth", "98.1% [20 µM] (inactive)"),
    ("O=C(c1ccccc1)c1ccc(Cl)c([N+](=O)[O-])c1", "growth", "103% (inactive)"),
]

###

Test system: MALME-3M melanoma
ASSAY_PROCEDURE: NCI-60 one-dose screen, 48 h
EXPERIMENTAL_CONTEXT: 10 µM unless noted
This is part of a sample that, as a whole, favours compounds with a hit. Of some 83,000 tested, about 20% had one in any assay. Activity calls are given as the source filed them. How the source made its calls: active means growth percent below 10; inactive means the rest.
Outcomes: active, inactive

# MOLECULE, TESTED_TARGET, GROUP
measured = [
    ("COc1ccc(/C=C2\\COc3ccc(O)c(O)c3C2=O)c(OC)c1", "MALME-3M melanoma", "inactive"),
    ("COC(=O)c1ccc(CSc2nnc(-c3ccncc3)o2)cc1", "MALME-3M melanoma", "inactive"),
    ("COC1(CC[C@@H](C)COC2OC(CO)C(O)C(O)C2O)O[C@H]2C[C@H]3[C@@H]4CC=C5C[C@@H](OC6OC(CO)C(OC7OC(C)C(O)C(O)C7O)C(O)C6OC6OC(C)C(O)C(O)C6O)CC[C@]5(C)[C@H]4CC[C@]3(C)[C@H]2[C@@H]1C (stereo partly drawn)", "MALME-3M melanoma", "active"),
    ("N[C@H]1CCC[C@@H]1NCCCCN1C(=O)c2cccc3cccc(c23)C1=O", "MALME-3M melanoma", "inactive"),
    ("C=C(C=O)[C@@H]1CC=C(C=O)CC1", "MALME-3M melanoma", "active"),
    ("O=C(O)C1C[C@](O)(c2ccc(F)cc2)[C@@H](c2ccc(F)cc2)O1 (stereo partly drawn)", "MALME-3M melanoma", "inactive"),
    ("Nc1c(-c2nc3ccccc3c(=O)[nH]2)nnn1-c1ccc(Cl)cc1", "MALME-3M melanoma", "inactive"),
    ("C=CC(=O)N[C@@H](Cc1ccc(-c2cc(Cl)cc(Cl)c2)cc1)[C@@H](O)[C@H](O)C(=O)O", "MALME-3M melanoma", "inactive"),
    ("Cn1nnnc1-c1ccc(N)cc1", "MALME-3M melanoma", "inactive"),
    ("C=C1C(=O)O[C@H]2[C@H]1CC/C(COC(=O)/C=C\\C(=O)NCc1ccc(Cn3c(=O)sn(-c4ccc(OC)cc4)c3=O)cc1)=C\\CC[C@@]1(C)O[C@@H]21", "MALME-3M melanoma", "active"),
    ("Cc1nc(Nc2ccc(NC(=S)Nc3ccccc3)cc2)nc2nc(Nc3ccc(S(=O)(=O)O)cc3)[nH]c(=O)c12", "MALME-3M melanoma", "inactive"),
    ("O=C(Oc1ccc[nH]c1=O)c1cc([N+](=O)[O-])cc([N+](=O)[O-])c1", "MALME-3M melanoma", "inactive"),
    ("CN1CCN(C(=O)[C@@]2(C)CC[C@]3(C)CC[C@]4(C)C(=CC[C@@H]5[C@@]6(C)C/C(=C/c7ccncc7)C(=O)C(C)(C)[C@@H]6CC[C@]54C)[C@@H]3C2)CC1", "MALME-3M melanoma", "inactive"),
    ("COc1ccc(OC)c(/C=C2\\COc3ccc(O)c(O)c3C2=O)c1", "MALME-3M melanoma", "active"),
    ("C=C(C=O)C1CCC2(C(=O)O)CCC3(C)C(CCC4C5(C)CCC(O)C(C)(C)C5CCC43C)C12 (stereo not drawn)", "MALME-3M melanoma", "active"),
    ("CC(C)OC(=O)NNC(=O)c1ccncc1", "MALME-3M melanoma", "inactive"),
    ("CCOC(=O)c1c(C)nc2c(c1N)/C(=C/c1ccc(OC)cc1)C(=O)N2Cc1ccc(F)cc1", "MALME-3M melanoma", "active"),
    ("COc1ccc(-c2c(N)n[nH]c2-c2ccccc2O)cc1OC", "MALME-3M melanoma", "inactive"),
]

###

Test system: HOP-62 NSCLC
ASSAY_PROCEDURE: NCI-60 one-dose screen, 48 h (100 = growth as untreated, 0 = no growth, -100 = all killed)
EXPERIMENTAL_CONTEXT: 10 µM unless noted
This is part of a sample that, as a whole, favours compounds with a hit. Of some 83,000 tested, about 20% had one in any assay.
Please mark yes (1) if the recorded growth is equal to or greater than 60%, and no (0) if it falls below.

# COMPOUND, GROUP
data = [
    ("CN1CCN(C2=C(Cl)C(=O)c3ccccc3C2=O)CC1", "yes (1)"),
    ("Clc1ccc(-c2nnc(-c3ccco3)o2)cc1", "yes (1)"),
    ("CCOc1cc(C2C(Cl)C(=O)N2n2cnnc2)ccc1O (centres undefined)", "yes (1)"),
    ("CN1CCN(c2ccc3nc(/N=C/c4ccc5sc(-c6ccc([N+](=O)[O-])cc6)nc5c4)sc3c2)CC1", "yes (1)"),
    ("O=C1c2cccc3c(-c4ccc(-c5nc6c7ccccc7c7ccccc7c6[nH]5)cc4)ccc(c23)C(=O)N1CCN1CCNCC1", "yes (1)"),
    ("O=C1/C(=C/c2ccc([N+](=O)[O-])cc2)COc2ccc(O)c(O)c21", "no (0)"),
    ("CCCCN(Cc1ccc(C(=O)NO)cc1)C(=O)Nc1ccc(OCCCCCCCCCn2cc(CCCCC(=O)N[C@H](C(=O)N3C[C@H](O)C[C@H]3C(=O)NCc3ccc(-c4scnc4C)cc3)C(C)(C)C)nn2)cc1", "no (0)"),
    ("CN1CCN(CCCOc2ccc3nc(Nc4cc(Cl)cc(Cl)c4)ccc3c2)CC1", "no (0)"),
    ("CCOC(=O)c1c(C)[nH]c(C(=O)CCC(=O)OC)c1C", "yes (1)"),
]
